Molecular target: recombinant human MMP-2 (Homo sapiens)
Sequence (P08253 110-660): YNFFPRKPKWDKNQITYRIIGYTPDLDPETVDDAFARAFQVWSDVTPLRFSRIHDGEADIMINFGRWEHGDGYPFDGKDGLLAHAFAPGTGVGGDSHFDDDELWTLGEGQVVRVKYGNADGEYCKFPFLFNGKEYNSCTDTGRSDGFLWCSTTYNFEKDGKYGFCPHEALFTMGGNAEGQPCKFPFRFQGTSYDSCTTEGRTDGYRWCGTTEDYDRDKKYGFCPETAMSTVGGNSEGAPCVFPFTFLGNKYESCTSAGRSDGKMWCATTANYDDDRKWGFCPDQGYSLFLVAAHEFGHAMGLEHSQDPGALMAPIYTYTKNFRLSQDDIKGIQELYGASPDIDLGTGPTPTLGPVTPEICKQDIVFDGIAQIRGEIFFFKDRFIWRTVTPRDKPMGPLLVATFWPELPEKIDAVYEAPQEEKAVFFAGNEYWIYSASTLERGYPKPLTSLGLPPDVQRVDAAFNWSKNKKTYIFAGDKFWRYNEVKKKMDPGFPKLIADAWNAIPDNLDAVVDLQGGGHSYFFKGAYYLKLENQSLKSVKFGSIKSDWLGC
Experiment: In vitro fluorescence assay of MMP-2 activity
property: IC50 (µM)
Hi! Could you send only the number? It should be in µM, unit omitted.

// sample O=C(O)CC[C@H](NC(=O)c1ccc(-c2ccccc2)cc1)C(=O)NCc1ccc(I)cc1 [Example 8LL] , its IC50 was 50

Looking up COc1ccccc1CNC(=O)[C@H](CCC(=O)O)NC(=O)c1ccc(-c2ccccc2)cc1 [Example 8Z] , I see its IC50 listed as 3.82

The reported IC50 of the compound COc1ccc(CCNC(=O)[C@H](CCC(=O)O)NC(=O)c2ccc(-c3ccccc3)cc2)cc1 [Example 8M] was 8

Measured IC50 of O=C(CC[C@H](NC(=O)c1ccc(-c2ccccc2)cc1)C(=O)NCc1cccc(OC(F)(F)F)c1)NO [Example 33D] : 0.0033

Quick note, IC50 for CC(C)(C)NC(=O)[C@H](CCC(=O)O)NC(=O)c1ccc(-c2ccccc2)cc1 [Example 8SSS] landed at 10.3

// CC(C)(Cc1ccc(F)cc1)NC(=O)[C@H](CCC(=O)O)NC(=O)c1ccc(-c2cccs2)cc1 [Example 8NNNNNNN] : IC50 value = 2.15

* * *

target: purified recombinant human Aggrecanase-1 (rAgg1) (Homo sapiens, UniProt O75173); experiment: In vitro fluorescence screen for Aggrecanase-1 inhibitors; assay type: biochemical; conditions: Table 2; read-out: Agg1 IC50
// classify: if (IC50 < 100 nM) True else False

Decide: IC50 of CCCNC(=O)[C@H](CCC(=O)O)NC(=O)c1ccc2c(c1)Cc1ccccc1-2 [Example 8FFFFF] strictly below 100 nM?
True

Field: below-cutoff. Rule: recorded IC50 strictly less than 100 nM. Subject: O=C(O)CC[C@H](NC(=O)c1ccc(Br)cc1)C(=O)NCC12CC3CC(CC(C3)C1)C2 [Example 18F]
False

Dear colleague, could you confirm whether IC50 of C[C@H](NC(=O)[C@H](CCC(=O)O)NC(=O)c1ccc(-c2ccccc2)cc1)c1ccc(F)cc1 [Example 8RRRRR] falls below 100 nM? Thanks.
False

Dear reviewer, please state whether C[C@@H](NC(=O)[C@H](CCC(=O)O)NC(=O)c1ccc(-c2ccccc2)cc1)c1ccc(F)cc1 [Example 8TTTTT] has IC50 strictly beneath 100 nM.
False

Dear reviewer, please state whether O=C(O)CC[C@H](NC(=O)c1ccc(C#CC2CCC(O)CC2)cc1)C(=O)NCc1ccccc1 (stereo partly drawn) [Example 17QQ] has IC50 strictly beneath 100 nM.
False

Input COc1cc(CNC(=O)[C@H](CCC(=O)O)NC(=O)c2ccc(-c3ccc(OCc4cc(C)cc(C)c4)cc3)cc2)cc(OC)c1OC [Example 19D] ; condition: IC50 strictly below 100 nM. Does it hold?
False

Criterion: IC50 strictly below 100 nM. Is it met by Cc1cc(C)cc(-c2ccc(C(=O)N[C@@H](CCC(=O)O)C(=O)NCC34CC5CC(CC(C5)C3)C4)cc2)c1 [Example 17X] ?
False

Field: below-cutoff. Rule: recorded IC50 strictly less than 100 nM. Subject: CC(C)(Cc1ccc(F)cc1)NC(=O)[C@H](CCC(=O)O)NC(=O)c1ccc(-c2cccc(O)c2)cc1 [Example 17UU]
True

Consider Cc1ccc(-c2ccc(C(=O)N[C@@H](CCC(=O)O)C(=O)NC(C)(C)Cc3ccc(F)cc3)cc2)cc1F [Example 17GG] . Does its IC50 lie strictly below 100 nM?
True

Please determine if O=C(O)CC[C@H](NC(=O)c1ccc(-c2ccccc2)cc1)C(=O)NCC12CC3CC(CC(C3)C1)C2 [Example 8AAAAAA] is below 100 nM in terms of IC50.
False

Just wondering, is IC50 of C[C@@H](CNC(=O)[C@H](CCC(=O)O)NC(=O)c1ccc2c(c1)Cc1ccccc1-2)c1ccccc1 [Example 8JJJJJJ] below 100 nM?
False

Given the entry COc1ccc(-c2ccc(C(=O)N[C@@H](CCC(=O)O)C(=O)NCc3cc(OC)c(OC)c(OC)c3)cc2)cc1 [Example 17B] , would its reported IC50 be below 100 nM?
False

* * *

Molecular target: purified recombinant human Aggrecanase-2 (Ag2t-Phe628-Strep) (Homo sapiens, UniProt Q9UNA0)
Construct: the form used is denoted as Ag2t-Phe628-Strep (MW=41,737)
Sequence (Q9UNA0 262-628): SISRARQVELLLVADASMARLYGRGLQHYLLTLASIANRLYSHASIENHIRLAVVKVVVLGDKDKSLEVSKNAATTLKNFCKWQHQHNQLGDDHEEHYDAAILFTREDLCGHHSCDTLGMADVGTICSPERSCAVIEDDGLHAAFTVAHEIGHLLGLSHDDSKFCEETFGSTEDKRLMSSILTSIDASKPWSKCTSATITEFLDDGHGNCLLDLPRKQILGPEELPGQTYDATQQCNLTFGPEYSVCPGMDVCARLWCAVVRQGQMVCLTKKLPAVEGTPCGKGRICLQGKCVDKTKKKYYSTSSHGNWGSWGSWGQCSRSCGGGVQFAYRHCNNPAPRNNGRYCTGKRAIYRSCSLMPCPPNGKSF
Experiment: In vitro fluorescence screen for Aggrecanase-2 inhibitors
Assay type: biochemical
Conditions: Table 3; read-out: Agg 2 IC50
property: IC50 (nM)
Give the value, in units of nM, as a plain number.

Item: CC(C)(Cc1ccc(F)cc1)NC(=O)[C@H](CCC(=O)O)NC(=O)c1ccc(-c2cccnc2)s1 [Example 8ZZZZZZZZ] | IC50: 9900

Noted for CC(C)(Cc1ccc(Cl)cc1)NC(=O)[C@H](CCC(=O)O)NC(=O)c1ccc(-c2ccncc2)s1 : its IC50 reads 3400

// IC50 lookup, molecule = CC(C)(Cc1ccc(Cl)cc1)NC(=O)[C@H](CCC(=O)O)NC(=O)c1ccc(-c2ccc(F)c(F)c2)cc1 [Example 8ZZZZZZ] , result: 120

Field IC50 (entry CC(C)(Cc1ccc(Cl)cc1)NC(=O)[C@H](CCC(=O)O)NC(=O)c1ccc(-c2ccc(C=O)s2)cc1 ) reads 900

* * *

Biological target: purified recombinant human Aggrecanase-1 (rAgg1) (Homo sapiens, UniProt O75173)
Sequence (O75173 213-837): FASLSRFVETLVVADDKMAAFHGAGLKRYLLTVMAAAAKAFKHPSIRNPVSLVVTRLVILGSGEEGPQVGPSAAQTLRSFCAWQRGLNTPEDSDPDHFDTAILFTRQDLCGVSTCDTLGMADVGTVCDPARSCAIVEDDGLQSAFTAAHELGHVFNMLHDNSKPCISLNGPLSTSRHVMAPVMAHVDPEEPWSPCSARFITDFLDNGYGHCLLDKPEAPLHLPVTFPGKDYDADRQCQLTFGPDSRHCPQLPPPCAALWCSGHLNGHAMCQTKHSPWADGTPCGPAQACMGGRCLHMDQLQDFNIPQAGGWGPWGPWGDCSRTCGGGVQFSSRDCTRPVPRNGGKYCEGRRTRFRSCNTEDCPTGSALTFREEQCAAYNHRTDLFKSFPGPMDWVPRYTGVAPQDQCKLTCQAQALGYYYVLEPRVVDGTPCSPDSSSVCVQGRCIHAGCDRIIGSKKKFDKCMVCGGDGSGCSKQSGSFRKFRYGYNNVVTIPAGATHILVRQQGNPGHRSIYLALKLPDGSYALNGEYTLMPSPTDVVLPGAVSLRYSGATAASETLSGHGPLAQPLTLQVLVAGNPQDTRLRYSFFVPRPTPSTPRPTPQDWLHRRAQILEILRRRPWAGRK
Assay: In vitro fluorescence screen for Aggrecanase-1 inhibitors
Assay type: biochemical
Conditions: Table 3; read-out: Ki Agg1
Kindly supply the reported pKi values for the records listed here.
A value of pKi is the negative decimal logarithm of a concentration given in moles per litre.

// field: pKi; key: CC(C)(Cc1ccc(F)cc1)NC(=O)[C@H](CCC(=O)O)NC(=O)c1ccc(-c2ccc(Cl)cc2)cc1 ; value = 8.17

Sample CC(C)(Cc1ccc(Cl)cc1)NC(=O)[C@H](CCC(=O)O)NC(=O)c1ccc(-c2cccc(Cl)c2)cc1 ; pKi observed: 7.40

get_value(item= CC(C)(Cc1ccc(F)cc1)NC(=O)[C@H](CCC(=O)O)NC(=O)c1ccc(-c2ccc(F)c(Cl)c2)s1 , readout=pKi) returns 8.17

Form field pKi, entry COc1cccc(-c2ccc(C(=O)N[C@@H](CCC(=O)O)C(=O)NC(C)(C)Cc3ccc(F)cc3)s2)c1 : 8.21

According to the records, this compound CC(C)(Cc1ccccc1)NC(=O)[C@H](CCC(=O)O)NC(=O)c1ccc(-c2ccc(F)cc2)s1 displays pKi of 7.94

// sample CC(C)(Cc1ccc(F)cc1)NC(=O)[C@H](CCC(=O)O)NC(=O)c1ccc(-c2cccc(Cl)c2)cc1 , its pKi was 8.06

Data point: CC(C)(Cc1ccc(F)cc1)NC(=O)[C@H](CCC(=O)O)NC(=O)c1ccc(-c2ccc(F)c(F)c2)cc1 ; pKi = 7.87

Data point: CC(C)(Cc1ccc(F)cc1)NC(=O)[C@H](CCC(=O)O)NC(=O)c1ccc(-c2ccccc2)s1 ; pKi = 8.42

The compound CC(C)(Cc1ccccc1)NC(=O)[C@H](CCC(=O)O)NC(=O)c1ccc(-c2ccc(F)cc2)cc1 showed pKi equal to 7.57

Entry CC(C)(Cc1ccc(Cl)cc1)NC(=O)[C@H](CCC(=O)O)NC(=O)c1ccc(-c2ccc(Cl)cc2)cc1 — recorded pKi = 7.74

Given item CC(C)(Cc1ccccc1)NC(=O)[C@H](CCC(=O)O)NC(=O)c1ccc(-c2cccc(F)c2)cc1 , the value recorded as its pKi is 7.63

The compound identified as CC(C)(Cc1ccc(Cl)cc1)NC(=O)[C@H](CCC(=O)O)NC(=O)c1ccc(-c2ccccc2)s1 registered its pKi at 7.90

pKi reported for this compound CC(C)(Cc1ccccc1)NC(=O)[C@H](CCC(=O)O)NC(=O)c1ccc(-c2ccc(Br)s2)cc1 : 8.57

The recorded pKi for CC(C)(Cc1ccccc1)NC(=O)[C@H](CCC(=O)O)NC(=O)c1ccc(-c2ccc(Cl)cc2)s1 is 7.54

The value of pKi measured for the compound CC(C)(Cc1ccc(F)cc1)NC(=O)[C@H](CCC(=O)O)NC(=O)c1ccc(-c2ccc(Cl)cc2)s1 turned out to be 7.93

# pKi of CC(C)(Cc1ccccc1)NC(=O)[C@H](CCC(=O)O)NC(=O)c1ccc(-c2ccc(Cl)s2)nc1 = 7.42

The compound identified as Cc1ccc(-c2ccc(C(=O)N[C@@H](CCC(=O)O)C(=O)NC(C)(C)Cc3ccc(F)cc3)cc2)s1 registered its pKi at 8.15

Summary for this compound, CC(C)(Cc1ccc(Cl)cc1)NC(=O)[C@H](CCC(=O)O)NC(=O)c1ccc(-c2ccc(Cl)s2)cc1 : pKi is 8.27

// sample CC(C)(Cc1ccc(F)cc1)NC(=O)[C@H](CCC(=O)O)NC(=O)c1ccc(-c2cccc(F)c2)cc1 , its pKi was 8.35

Short answer for CC(C)(Cc1ccc(F)cc1)NC(=O)[C@H](CCC(=O)O)NC(=O)c1ccc(-c2cccs2)s1 : pKi was 7.94

The recorded pKi for entry CC(C)(Cc1ccc(Cl)cc1)NC(=O)[C@H](CCC(=O)O)NC(=O)c1ccc(-c2cccs2)s1 equals 7.07

Value of measured pKi for the entry CC(C)(Cc1ccc(Cl)cc1)NC(=O)[C@H](CCC(=O)O)NC(=O)c1ccc(-c2ccc(Cl)s2)nc1 : 7.39

Recorded result, CC(C)(Cc1ccc(F)cc1)NC(=O)[C@H](CCC(=O)O)NC(=O)c1ccc(-c2ccc(Br)s2)cc1 , pKi: 8.15

Kindly note the recorded pKi for CC(C)(Cc1ccc(F)cc1)NC(=O)[C@H](CCC(=O)O)NC(=O)c1ccc(-c2ccc(Cl)s2)nc1 , which is 7.38

The measured pKi associated with COc1cccc(-c2ccc(C(=O)N[C@@H](CCC(=O)O)C(=O)NC(C)(C)Cc3ccc(Cl)cc3)s2)c1 reads 7.57

Source: patent US7998965B2
